tested on: SW-620; experiment: NCI tumour cell line growth inhibition, 48 h
Calls of active or inactive are those of the source. Rule as the data show it: active = GI50 up to about 1.1 µM and inactive = higher.
MEASURED METRIC: GI50

Check the records and state GI50 for N/C(S)=N/N=C/c1cc(CN2CCOCC2)c(N)cn1
62.1 µM (inactive)

For CCCCNS(=O)(=O)c1ccc(-c2ccc3c(c2)-c2ccc(S(=O)(=O)NCCCC)cc2S3(=O)=O)cc1 , write its GI50.
15.2 µM (inactive)

Give reported GI50 value for C[C@]12CC[C@@H]3c4ccc(O)cc4CC[C@H]3[C@@H]1CC[C@@H]2OC(=O)CCc1ccccc1
23.3 µM (inactive)

Identify the reported GI50 for the following entry. CCOC(=O)NC1C2CC(=O)OC(O2)C1OC(C)=O (stereo not given)
> 100 µM (inactive)

Answer with the recorded GI50 for the compound listed here: CCOc1ccc(NC(=O)CC2SC(Nc3ccc(C)cc3)=NC2=O)cc1 (stereo not given)
> 100 µM (inactive)

Please give measured GI50 of the following entry: CC1=NN(c2cccc(Cl)c2)C2(SCC(=O)N2c2nc3ccccc3s2)C1=CC=Cc1ccccc1 (stereo not given)
26.3 µM (inactive)

In one line, give reported GI50 of the entry O=C1NN=C2C=C(c3ccc(Cl)cc3)CC(c3cccc(Br)c3)C12 (stereo not given) .
81.8 µM (inactive)

Consider the compound CCOC(=O)C(C(=O)c1ccccc1C(=O)OC)=P(c1ccccc1)(c1ccccc1)c1ccccc1 and give its recorded GI50.
> 10 µM (inactive)

Given the compound CC(C)(C)OC(=O)N[C@H]1CC2(C=C(Cl)C(=O)C(Cl)=C2)OC1=O , write its reported GI50.
4.33 µM (inactive)

Tell us which GI50 value is on record for CCNC(=S)NNC(=O)c1nsc2ccccc12
> 100 µM (inactive)

---

test system: MDA-MB-435; experiment: NCI tumour cell line growth inhibition, 48 h
Active and inactive are the calls of the source. Cut-off read from the data, not from the text of the source: active = GI50 up to about 1.1 µM and inactive = higher. Residues, ends and D or L forms follow the SMILES beside them. Groups on a side chain read outwards from the residue. *: point of attachment. Cbz = O=C(OCc1ccccc1)*; Boc = CC(C)(C)OC(=O)*
Write down the outcome that applies. Available outcomes: TRUE = active, FALSE = inactive

Field: outcome | Entry: CS(C)(=O)=Nn1c(=O)n2n(c1=O)C1c3ccccc3C2c2ccccc21
FALSE

Given O=P1(Cc2ccccc2)c2ccccc2-c2ccccc21 , state the outcome it received in this test.
TRUE

# fetch the recorded call for CCC1(O)C(=O)OCc2c1cc1n(c2=O)Cc2cc3cc(N)ccc3nc2-1 (stereo unspecified) here
TRUE

Which outcome did this test record for the compound CC[C@@]1(C)CCC2c3ccc(O)cc3CC[C@H]2C1C (stereo partly specified) ?
FALSE

Would you mind telling me which call this test gave CCOP(=O)(/C=C/n1cnc2c(=O)n(C(C)=O)c(N)nc21)OCC ?
FALSE

Give the logged outcome of this assay for the following compound: CC(C)(C)/C(=N\Nc1nc2ccccc2[nH]1)c1ccccn1
FALSE

# fetch the recorded call for CC(C)(C)OC(=O)NC(CCCCNC(=O)CNC(=O)OCc1ccccc1)C(=O)NC(CCCCNC(=O)CNC(=O)OCc1ccccc1)C(=O)NC(CCCCNC(=O)CNC(=O)OCc1ccccc1)C(=O)NC(CCCCNC(=O)CNC(=O)OCc1ccccc1)C(=O)O (stereo unspecified) (Boc-K([Gly-Cbz])K([Gly-Cbz])K([Gly-Cbz])K([Gly-Cbz])-OH; configuration not given here) here
FALSE

// outcome(item) with item = CCCCCCCC/C=C\CCCCCCC(F)C(=O)O (stereo unspecified)
FALSE

// outcome(item) with item = O=C(O)c1cccc2c1/C(=N/Nc1ccccc1)CC2
FALSE

Which outcome was entered for the compound O=S(=O)(O)c1cc(/N=N/c2cc(S(=O)(=O)O)c3ccccc3c2O)ccc1/C=C/c1ccc(/N=N/c2cc(S(=O)(=O)O)c3ccccc3c2O)cc1S(=O)(=O)O in this test?
FALSE

Tell me the assay call for C#CC1(O)CCCCCCCCC2(CCCCCCCC1)OCCO2 please.
FALSE

Recorded test call requested for COc1cc2c(/C=C3/C(=O)N(C)c4ccc(O)cc43)c(Cl)[nH]c2cc1C
TRUE

How did this test come out for CN(C)CCNC1=Nc2ccccc2C(=O)N2CSCC12 (stereo unspecified) ?
FALSE

Field: outcome | Entry: COc1cccc(OCC(=N/NC(=O)c2ccncc2)/N=C/c2cccnc2)c1
FALSE

Lab log entry: c1ccc(Cc2cccc3cc(-c4ccc(-c5ccccc5)cc4)[nH]c23)cc1 — outcome as called in the assay?
FALSE

Which outcome did this test record for the compound O=C1N/N=C\Nc2ccc(cc2)S(=O)(=O)c2ccc(cc2)/N=C\NNC1=O ?
FALSE
